- EXPERIMENTAL TARGET: PDE10A2 (Homo sapiens, UniProt Q9Y233)
- Construct: residues serine 449 to aspartate 789; His6 (H6) with Gateway linker and thrombin cleavage site (N, cleaved yes)
- Sequence (Q9Y233 715-1055): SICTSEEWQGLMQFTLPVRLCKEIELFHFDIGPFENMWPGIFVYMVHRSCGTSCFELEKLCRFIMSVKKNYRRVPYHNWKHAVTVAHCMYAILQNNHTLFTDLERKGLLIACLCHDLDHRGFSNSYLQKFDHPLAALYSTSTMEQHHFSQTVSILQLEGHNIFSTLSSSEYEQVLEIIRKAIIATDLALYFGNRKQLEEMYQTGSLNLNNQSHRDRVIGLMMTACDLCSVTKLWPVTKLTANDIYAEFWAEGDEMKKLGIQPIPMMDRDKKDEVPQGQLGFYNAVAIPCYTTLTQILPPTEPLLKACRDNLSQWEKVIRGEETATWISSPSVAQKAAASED
- ASSAY METHOD TEXT: PDE10A2 Scintillation Proximity Assay (SPA), [3H]-cGMP hydrolysis
- TEST CONTEXT: catalytic domain of human PDE10A2 (S449-D789), 0.25 nM enzyme, 50 nM cGMP + 50 nM [3H]-cGMP, 30 minutes at room temperature; read-out: PDE10A2 inhibition IC50
- Experimental: The following tests were carried out in order to determine the activity of the compounds of the present invention. PDE10 activity of the compounds of the present invention is determined using a Scintillation Proximity Assay (SPA)-based method similar to the one previously described (Fawcett, L. et al., ProcNatl Acad Sci USA (2000) 97(7):3702-3707). PDE10A1 and PDE10A2 are two splice variants of PDE10A. There are these 2 splice variants known, which differ in the N-terminal part of the protein. […]
Please respond with reported IC50 for every item in the list.
I'd appreciate it if you wrote the number followed by its unit.

Worked examples follow.
INSERT INTO measurements (record_smiles, experimental_target, meas_value) VALUES
  ('O=c1ccn(-c2cncc(OC(F)F)c2)nc1-c1ccnn1-c1cccc2ncccc12', 'PDE10A2 (Homo sapiens, UniProt Q9Y233)', '46 nM'),
  ('O=c1ccn(-c2cncc3ccccc23)nc1-c1ccnn1-c1ccccc1F', 'PDE10A2 (Homo sapiens, UniProt Q9Y233)', '144 nM'),
  ('O=c1ccn(-c2ccncc2)nc1-c1ccnn1-c1cccc(F)c1F', 'PDE10A2 (Homo sapiens, UniProt Q9Y233)', '219 nM'),
  ('O=c1ccn(-c2ccc3cnccc3c2)nc1-c1ccnn1-c1ccccc1F', 'PDE10A2 (Homo sapiens, UniProt Q9Y233)', '31 nM'),
  ('C#Cc1cccc(-n2nccc2-c2nn(-c3ccncc3)ccc2=O)c1', 'PDE10A2 (Homo sapiens, UniProt Q9Y233)', '18 nM');

Here are 7 molecules. What values of IC50 were reported for them?
1. COc1cc(-n2ccc(=O)c(-c3ccnn3-c3cccc(F)c3)n2)ccn1
2. O=c1ccn(-c2ccc(Cl)nc2)nc1-c1ccnn1-c1ccccc1F
3. O=c1ccn(-c2cccnc2)nc1-c1ccnn1-c1ccc2c(c1)OCO2
4. O=c1ccn(-c2cncc(F)c2)nc1-c1ccnn1-c1ccnc2ccc(F)cc12
5. O=c1ccn(-c2cccnc2)nc1-c1ccnn1-c1cccc2ncccc12
6. O=c1ccn(-c2cnc3ccccc3c2)nc1-c1ccnn1-c1ccccc1F
7. CS(=O)(=O)c1cc(-n2ccc(=O)c(-c3ccnn3-c3ccc4c(c3)OCCO4)n2)ccn1

## Result
1. 414 nM
2. 183 nM
3. 150 nM
4. 163 nM
5. 169 nM
6. 38 nM
7. 96 nM

# map each molecule to its IC50
1. O=c1ccn(-c2ccncc2)nc1-c1ccnn1-c1cncc2ccccc12
2. CS(=O)(=O)c1cc(-n2ccc(=O)c(-c3ccnn3-c3cccc4ccccc34)n2)ccn1
3. O=c1ccn(-c2ccc(C(F)(F)F)nc2)nc1-c1ccnn1-c1ccccc1F
4. O=c1ccn(-c2cncc(Cl)c2)nc1-c1ccnn1-c1ccnc2ccccc12

## Result
["188 nM", "15 nM", "120 nM", "20 nM"]

Lab note: each molecule below needs its IC50 filled in.
1. O=c1ccn(-c2ccc(C(F)(F)F)nc2)nc1-c1ccnn1-c1cccc2cnccc12
2. O=c1ccn(-c2ccnc(O)c2)nc1-c1ccnn1-c1ccc2c(c1)OCCO2

## Result
1: 107 nM; 2: 57 nM
